- system: human wild type-CFTR (Homo sapiens, UniProt P13569)
- Sequence (P13569 whole entry): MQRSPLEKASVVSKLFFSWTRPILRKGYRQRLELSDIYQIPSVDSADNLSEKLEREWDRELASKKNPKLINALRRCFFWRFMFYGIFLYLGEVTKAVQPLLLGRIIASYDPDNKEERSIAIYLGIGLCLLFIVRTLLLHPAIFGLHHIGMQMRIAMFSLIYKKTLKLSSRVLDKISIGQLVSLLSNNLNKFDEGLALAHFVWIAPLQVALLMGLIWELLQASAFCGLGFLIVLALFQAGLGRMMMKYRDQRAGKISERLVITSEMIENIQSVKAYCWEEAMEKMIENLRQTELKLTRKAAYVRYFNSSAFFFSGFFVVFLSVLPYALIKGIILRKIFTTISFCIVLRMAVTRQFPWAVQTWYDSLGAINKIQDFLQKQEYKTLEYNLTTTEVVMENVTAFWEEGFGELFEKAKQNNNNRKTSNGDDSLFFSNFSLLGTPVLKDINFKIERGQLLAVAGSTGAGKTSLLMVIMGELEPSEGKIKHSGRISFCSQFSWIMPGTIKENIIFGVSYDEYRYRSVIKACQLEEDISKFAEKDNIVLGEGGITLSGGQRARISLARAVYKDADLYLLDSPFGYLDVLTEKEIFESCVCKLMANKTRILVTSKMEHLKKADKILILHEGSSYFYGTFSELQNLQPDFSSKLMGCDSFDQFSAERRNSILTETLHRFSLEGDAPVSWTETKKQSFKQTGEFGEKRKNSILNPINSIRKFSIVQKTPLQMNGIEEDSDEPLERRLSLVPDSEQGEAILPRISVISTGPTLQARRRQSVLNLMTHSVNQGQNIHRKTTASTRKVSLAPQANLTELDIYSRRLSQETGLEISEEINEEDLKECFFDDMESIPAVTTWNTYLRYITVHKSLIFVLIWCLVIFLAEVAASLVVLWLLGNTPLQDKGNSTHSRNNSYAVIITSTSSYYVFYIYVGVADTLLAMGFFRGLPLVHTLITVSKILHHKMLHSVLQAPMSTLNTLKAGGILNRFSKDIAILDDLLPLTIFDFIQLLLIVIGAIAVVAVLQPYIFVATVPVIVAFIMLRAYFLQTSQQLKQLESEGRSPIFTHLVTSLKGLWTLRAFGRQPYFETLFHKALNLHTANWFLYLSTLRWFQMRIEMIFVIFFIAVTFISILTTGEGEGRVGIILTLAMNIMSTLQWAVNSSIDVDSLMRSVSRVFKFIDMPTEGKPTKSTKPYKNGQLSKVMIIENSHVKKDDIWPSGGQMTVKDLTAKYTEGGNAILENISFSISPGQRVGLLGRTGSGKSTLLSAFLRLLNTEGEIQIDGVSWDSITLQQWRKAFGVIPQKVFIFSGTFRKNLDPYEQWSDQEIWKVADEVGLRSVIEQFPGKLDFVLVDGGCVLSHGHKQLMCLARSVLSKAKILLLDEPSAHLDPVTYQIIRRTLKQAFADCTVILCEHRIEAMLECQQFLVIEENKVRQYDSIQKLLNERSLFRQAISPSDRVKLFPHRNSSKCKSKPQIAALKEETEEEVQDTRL
- method-summary: Cell-based YFP assay
- Design: expressed in transfected cells; host or cells: CHO-K1 (Chinese hamster ovary)
- experimental-conditions: CHO-K1 cells expressing human wild type-CFTR and YFP-H148Q/I152L; forskolin 20 μM = 100% activity; read-out: Cell-based YFP Assay (EC50) Concentration Range
measured-metric: EC50

So what's the measured EC50 for this one? `CCOC(=O)CNC(=O)c1ccc(NC(=O)c2cc3nccc(-c4ccc(OC)c(OC)c4)n3n2)cc1` < 200 nM

So what's the measured EC50 for this one? `COc1ccc(-c2ccnc3cc(C(=O)Nc4ccc(C(=O)O)c(C)c4)nn23)cc1OC` ≥ 2000 nM

So what's the measured EC50 for this one? `COc1ccc(NC(=O)c2cc3nccc(-c4ccc(OC)c(OC)c4)n3n2)c(F)c1` < 200 nM

So what's the measured EC50 for this one? `COc1ccc(-c2ccnc3cc(C(=O)N4CCNC(=O)C4)nn23)cc1OC` ≥ 2000 nM

The reported numbers originate from patent US20240199623A1.
